MEASURED TARGET: Human immunodeficiency virus type 1 reverse transcriptase (Human immunodeficiency virus 1, UniProt Q72547)
METHOD: Inhibition of HIV-1 reverse transcriptase using [2,8-3H]dGTP as substrate by […] assay
Entries and their IC50 values follow.
I only need the number, in nM, no unit after it.

- COMPOUND STRING: "CS(=O)(=O)Nc1ccc2[nH]c(C(=O)N3CCC(Nc4nccc(Oc5cccc(C#N)c5)n4)CC3)cc2c1"
  READOUT UNIT: "nM"
  RECORDED NUMBER: 600

Input line: Give the measured IC50 of CS(=O)(=O)Nc1ccc2[nH]c(C(=O)N3CCC(Nc4nccc(Oc5cccc(F)c5)n4)CC3)cc2c1 .
Output line: 4200

Input line: Can you handle CS(=O)(=O)Nc1ccc2[nH]c(C(=O)N3CCC(Nc4nccc(Oc5ccc(C(F)(F)F)cc5)n4)CC3)cc2c1 next?
Output line: 1300

Input line: Can you handle Cc1cccc(Oc2ccnc(NC3CCN(C(=O)c4cc5cc(NS(C)(=O)=O)ccc5[nH]4)CC3)n2)c1 next?
Output line: 1200

Input line: Can you handle CS(=O)(=O)Nc1ccc2[nH]c(C(=O)N3CCC(Nc4nccc(Oc5cccc(Br)c5)n4)CC3)cc2c1 next?
Output line: 3400

Input line: Can you handle CS(=O)(=O)Nc1ccc2[nH]c(C(=O)N3CCC(Nc4nccc(Oc5ccc(Cl)cc5)n4)CC3)cc2c1 next?
Output line: 1100

Input line: Can you handle CS(=O)(=O)Nc1ccc2[nH]c(C(=O)N3CCC(Nc4nccc(Oc5cccc(C(F)(F)F)c5)n4)CC3)cc2c1 next?
Output line: 1800

* * *

System: Human immunodeficiency virus 1
METHOD: Antiviral activity against HIV-1 F227L-V106A mutant infected in human MT4 cells assessed as protection against virus induced cytopathic effect and measured after 5 days by MTT spectrophotometric assay
Type: functional, organism-based
TEST SETTINGS: Human immunodeficiency virus 1, MT4, 120 h
PROPERTY: EC50

- COMPOUND STRING: "CS(=O)(=O)Nc1ccc2[nH]c(C(=O)N3CCC(Nc4nccc(Oc5cccc(F)c5)n4)CC3)cc2c1"
  RESULT: "> 15 µM"
- COMPOUND STRING: "CS(=O)(=O)Nc1ccc2[nH]c(C(=O)N3CCC(Nc4nccc(Oc5ccc(Cl)cc5)n4)CC3)cc2c1"
  RESULT: "> 15 µM"
- COMPOUND STRING: "Cc1cccc(Oc2ccnc(NC3CCN(C(=O)c4cc5cc(NS(C)(=O)=O)ccc5[nH]4)CC3)n2)c1"
  RESULT: "> 27 µM"

# input for lookup
Input line: Give the measured EC50 of CS(=O)(=O)Nc1ccc2[nH]c(C(=O)N3CCC(Nc4nccc(Oc5cccc(C(F)(F)F)c5)n4)CC3)cc2c1 .
Output line: > 16 µM

* * *

Entries and their selectivity ratio values follow.
METHOD: in vitro
TEST SETTINGS: human, MT4 cells
Description: Selectivity index, ratio of CC50 for cytotoxicity against human MT4 cells assessed as reduction in cell viability to EC50 for antiviral activity against HIV-1 IIIb infected in human MT4 cells assessed as reduction in virus induced cytopathic effect
Respond numerically, and do not add a unit to the figure.

- COMPOUND STRING: "Cc1ccccc1Oc1ccnc(NC2CCN(C(=O)c3cc4cc(NS(C)(=O)=O)ccc4[nH]3)CC2)n1"
  selectivity ratio: 41
- COMPOUND STRING: "Cc1cccc(C)c1Oc1ccnc(NC2CCN(C(=O)c3cc4cc(NS(C)(=O)=O)ccc4[nH]3)CC2)n1"
  selectivity ratio: 678
- COMPOUND STRING: "CS(=O)(=O)Nc1ccc2[nH]c(C(=O)N3CCC(Nc4nccc(Oc5ccc(C#N)cc5)n4)CC3)cc2c1"
  selectivity ratio: 62

# input for lookup
Input line: Give the measured selectivity ratio of CS(=O)(=O)Nc1ccc2[nH]c(C(=O)N3CCC(Nc4nccc(Oc5ccccc5Br)n4)CC3)cc2c1 .
Output line: 60

* * *

Test system: Human immunodeficiency virus 1
METHOD: Antiviral activity against HIV-1 F227L-V106A mutant infected in human MT4 cells assessed as protection against virus induced cytopathic effect and measured after 5 days by MTT spectrophotometric assay
Type: functional, organism-based
TEST SETTINGS: Human immunodeficiency virus 1, MT4, 120 h
PROPERTY: EC50 (µM)
I only need the number, in µM, no unit after it.

- COMPOUND STRING: "Cc1cc(C#N)cc(C)c1Oc1nc(Nc2ccc(C#N)cc2)nc(N)c1Br"
  RECORDED NUMBER: 0.03
- COMPOUND STRING: "CS(=O)(=O)Nc1ccc2[nH]c(C(=O)N3CCC(Nc4nccc(Oc5ccccc5Cl)n4)CC3)cc2c1"
  RECORDED NUMBER: 8.3

# input for lookup
Input line: Give Human immunodeficiency virus 1 EC50 for CS(=O)(=O)Nc1ccc2[nH]c(C(=O)N3CCC(Nc4nccc(Oc5ccccc5Br)n4)CC3)cc2c1
Output line: 6.5

* * *

Test system: Human immunodeficiency virus 1
METHOD: Antiviral activity against HIV-1 Y181C mutant infected in human MT4 cells assessed as protection against virus induced cytopathic effect and measured after 5 days by MTT spectrophotometric assay
Assay type: functional, organism-based
TEST SETTINGS: Human immunodeficiency virus 1, MT4, 120 h
Entries and their EC50 values follow.

- COMPOUND STRING: "CS(=O)(=O)Nc1ccc2[nH]c(C(=O)N3CCC(Nc4nccc(Oc5ccc(C(F)(F)F)cc5)n4)CC3)cc2c1"
  PROPERTY: "EC50"
  RESULT: "> 18 µM"
- COMPOUND STRING: "CS(=O)(=O)Nc1ccc2[nH]c(C(=O)N3CCC(Nc4nccc(Oc5ccc(C#N)cc5)n4)CC3)cc2c1"
  PROPERTY: "EC50"
  RESULT: "> 192 µM"
- COMPOUND STRING: "CS(=O)(=O)Nc1ccc2[nH]c(C(=O)N3CCC(Nc4nccc(Oc5ccc(Cl)cc5)n4)CC3)cc2c1"
  PROPERTY: "EC50"
  RESULT: "> 15 µM"
- COMPOUND STRING: "Cc1cccc(Oc2ccnc(NC3CCN(C(=O)c4cc5cc(NS(C)(=O)=O)ccc5[nH]4)CC3)n2)c1"
  PROPERTY: "EC50"
  RESULT: "> 27 µM"
- COMPOUND STRING: "CS(=O)(=O)Nc1ccc2[nH]c(C(=O)N3CCC(Nc4nccc(Oc5ccc(Br)cc5)n4)CC3)cc2c1"
  PROPERTY: "EC50"
  RESULT: "> 9.1 µM"
- COMPOUND STRING: "CS(=O)(=O)Nc1ccc2[nH]c(C(=O)N3CCC(Nc4nccc(Oc5cccc(C(F)(F)F)c5)n4)CC3)cc2c1"
  PROPERTY: "EC50"
  RESULT: "> 16 µM"

Input line: Give the measured EC50 of Cc1cc(Oc2ccnc(NC3CCN(C(=O)c4cc5cc(NS(C)(=O)=O)ccc5[nH]4)CC3)n2)cc(C)c1Cl .
Output line: > 5.3 µM

Input line: Can you handle CS(=O)(=O)Nc1ccc2[nH]c(C(=O)N3CCC(Nc4nccc(Oc5cccc(F)c5)n4)CC3)cc2c1 next?
Output line: > 15 µM

Input line: Can you handle CS(=O)(=O)Nc1ccc2[nH]c(C(=O)N3CCC(Nc4nccc(Oc5cccc(C#N)c5)n4)CC3)cc2c1 next?
Output line: > 29 µM

* * *

Tested on: Human immunodeficiency virus 1
METHOD: Antiviral activity against HIV-1 L100I mutant infected in human MT4 cells assessed as protection against virus induced cytopathic effect and measured after 5 days by MTT spectrophotometric assay
Format: functional, organism-based
TEST SETTINGS: Human immunodeficiency virus 1, MT4, 120 h
PROPERTY: EC50

Would you please look over these solved cases?
- COMPOUND STRING: "CS(=O)(=O)Nc1ccc2[nH]c(C(=O)N3CCC(Nc4nccc(Oc5cccc(C(F)(F)F)c5)n4)CC3)cc2c1"
  EC50: "> 16 µM"
- COMPOUND STRING: "CS(=O)(=O)Nc1ccc2[nH]c(C(=O)N3CCC(Nc4nccc(Oc5cccc(C#N)c5)n4)CC3)cc2c1"
  EC50: "> 29 µM"
- COMPOUND STRING: "CS(=O)(=O)Nc1ccc2[nH]c(C(=O)N3CCC(Nc4nccc(Oc5ccc(C#N)cc5)n4)CC3)cc2c1"
  EC50: "> 192 µM"

Input line: Give the measured EC50 of Cc1ccccc1Oc1ccnc(NC2CCN(C(=O)c3cc4cc(NS(C)(=O)=O)ccc4[nH]3)CC2)n1 .
Output line: > 13 µM

Input line: Can you handle Cc1cc(Oc2ccnc(NC3CCN(C(=O)c4cc5cc(NS(C)(=O)=O)ccc5[nH]4)CC3)n2)cc(C)c1Cl next?
Output line: > 5.3 µM

Input line: Can you handle CS(=O)(=O)Nc1ccc2[nH]c(C(=O)N3CCC(Nc4nccc(Oc5cccc(F)c5)n4)CC3)cc2c1 next?
Output line: > 15 µM

Input line: Can you handle CS(=O)(=O)Nc1ccc2[nH]c(C(=O)N3CCC(Nc4nccc(Oc5ccc(C(F)(F)F)cc5)n4)CC3)cc2c1 next?
Output line: > 18 µM

Input line: Can you handle Cc1cccc(Oc2ccnc(NC3CCN(C(=O)c4cc5cc(NS(C)(=O)=O)ccc5[nH]4)CC3)n2)c1 next?
Output line: > 27 µM
